B1: CPEB3 Ribozyme (parent)
chain: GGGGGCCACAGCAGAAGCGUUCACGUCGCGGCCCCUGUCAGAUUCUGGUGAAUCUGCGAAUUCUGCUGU

- Variants of: B1
- Assay overview: self-cleavage, relative activity (ratio to wild type); higher = more cleavage; co-transcriptional
The label depends only on self-cleavage: Satisfied if it is at least 0.6, Not satisfied if it is smaller.

>  <Mutation label>
A52U G56C

>  <Group>
Not satisfied

$$$$
>  <Mutation label>
G17U G37U

>  <Group>
Not satisfied

$$$$
>  <Mutation label>
A60C C63U

>  <Group>
Not satisfied

$$$$
>  <Mutation label>
G14U A23C

>  <Group>
Satisfied

$$$$
>  <Mutation label>
U53C U64C

>  <Group>
Not satisfied

$$$$
>  <Mutation label>
G11A U64A

>  <Group>
Satisfied

$$$$
>  <Mutation label>
C54U G56A

>  <Group>
Satisfied

$$$$
>  <Mutation label>
C6A G14U

>  <Group>
Not satisfied

$$$$
>  <Mutation label>
A52C U55A

>  <Group>
Satisfied

$$$$
>  <Mutation label>
A16C C66G

>  <Group>
Not satisfied

$$$$
>  <Mutation label>
G2A U43C

>  <Group>
Not satisfied

$$$$
>  <Mutation label>
U64C C66U

>  <Group>
Satisfied

$$$$
>  <Mutation label>
G1U G30U

>  <Group>
Not satisfied

$$$$
>  <Mutation label>
G14A A60C

>  <Group>
Not satisfied

$$$$
>  <Mutation label>
G1C G68C

>  <Group>
Not satisfied

$$$$
>  <Mutation label>
G17C A42C

>  <Group>
Not satisfied

$$$$
>  <Mutation label>
A16G C34U

>  <Group>
Satisfied

$$$$
>  <Mutation label>
U61C

>  <Group>
Satisfied

$$$$
>  <Mutation label>
G1C A52C

>  <Group>
Not satisfied

$$$$
>  <Mutation label>
C6U A59G

>  <Group>
Satisfied

$$$$
>  <Mutation label>
U38A C63A

>  <Group>
Satisfied

$$$$
